In this section, each of the compounds is paired with its reported growth.
System: SW-620 colon
assay-comment: NCI-60 one-dose screen, 48 h (100 = growth as untreated, 0 = no growth, -100 = all killed)
assay-setup: 10 µM unless noted
Compounds without any hit were thinned out: in the full panel of roughly 83,000, 20% have a hit.
reported-endpoint: growth (%)

• c1ccc(-c2cc3cc4ccccc4cn3c2)cc1 = 89.9
• O=C(C[P+](c1ccccc1)(c1ccccc1)c1ccccc1)c1ccccc1 = 97.3
• Oc1c(Cl)cc(Cl)cc1C(c1cc(Cl)cc(Cl)c1O)C(Cl)(Cl)Cl = 9.94
• COc1cc(/C=C/c2ccnc3ccccc23)cc(OC)c1OC = 17.4
• O=[N+]([O-])c1cc(-c2ccccc2)c(O)c([N+](=O)[O-])c1 = 98.2
• CCC(C)C(N)C(=O)NC(CC(N)=O)C(=O)NC(CC(C)C)C(=O)NC(CCCCN)C(=O)NC(C)C(=O)NC(CC(C)C)C(=O)NC(C)C(=O)NC(C)C(=O)NC(CC(C)C)C(=O)NC(C)C(=O)NC(CCCCN)C(=O)NC(CCCCN)C(=O)NC(C(=O)NC(CC(C)C)C(N)=O)C(C)CC (centres undefined) = 103
• COc1cc(-c2ccc(-[n+]3nc(-c4ccc([N+](=O)[O-])cc4)nn3-c3ccc([N+](=O)[O-])cc3)c(OC)c2)ccc1-[n+]1nc(-c2ccc([N+](=O)[O-])cc2)nn1-c1ccc([N+](=O)[O-])cc1 = 2.63
• CCCCCCCCCCCCCCCc1ccc(C(=O)C[n+]2ccccc2)cc1 = -79.1
• CN(C)c1ccc(C(=C2C=CC(=[N+](C)C)C=C2)c2ccc(N(C)C)cc2)cc1 = -67.2
• Cc1c(O)ccc(SC#N)c1C = 103
• O=C(Nc1ccc(Cl)c(Cl)c1)Nc1ccccc1O = 90.1
• O=C1/C(=C/c2ccccn2)CCc2ccccc21 = 85.5
• CC[n+]1ccc(Nc2ccc(NC(=O)c3ccc(Nc4cc[n+](CC)c5ccc([N+](=O)[O-])cc45)cc3)cc2)cc1 = 92.8
• Cc1cc(C)c([I+]c2c(C)cc(C)cc2C)c(C)c1 = -40.1

src = PubChem BioAssay (NCI)
